# TARGET SYSTEM: UniProt Q92831
# Sequence (Q92831 whole entry): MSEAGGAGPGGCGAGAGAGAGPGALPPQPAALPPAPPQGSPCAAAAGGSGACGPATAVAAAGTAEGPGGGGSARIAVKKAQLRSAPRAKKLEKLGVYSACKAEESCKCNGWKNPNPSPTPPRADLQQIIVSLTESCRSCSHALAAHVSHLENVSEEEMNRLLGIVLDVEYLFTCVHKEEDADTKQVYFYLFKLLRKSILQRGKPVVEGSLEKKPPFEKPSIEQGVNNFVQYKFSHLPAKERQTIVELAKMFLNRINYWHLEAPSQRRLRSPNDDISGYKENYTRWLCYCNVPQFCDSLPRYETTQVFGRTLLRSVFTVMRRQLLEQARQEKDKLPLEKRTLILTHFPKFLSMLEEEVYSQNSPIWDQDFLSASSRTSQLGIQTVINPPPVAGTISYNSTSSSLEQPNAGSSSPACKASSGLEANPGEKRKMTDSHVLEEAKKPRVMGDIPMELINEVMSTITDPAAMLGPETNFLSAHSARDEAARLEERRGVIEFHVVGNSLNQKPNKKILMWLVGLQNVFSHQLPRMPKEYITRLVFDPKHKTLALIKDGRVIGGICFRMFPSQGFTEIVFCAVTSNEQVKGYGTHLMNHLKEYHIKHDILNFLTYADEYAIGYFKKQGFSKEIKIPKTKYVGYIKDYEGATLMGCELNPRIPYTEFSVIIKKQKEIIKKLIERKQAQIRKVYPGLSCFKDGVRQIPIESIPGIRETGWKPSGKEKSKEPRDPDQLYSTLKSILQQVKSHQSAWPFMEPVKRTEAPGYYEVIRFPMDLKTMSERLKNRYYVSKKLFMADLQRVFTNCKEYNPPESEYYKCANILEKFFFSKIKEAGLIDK
# METHOD SUMMARY: KAT2B degradation, Western Blot (Jess), NCI-H1048 cells
# Format: cell-based
# Parameters: degrader, Western blot (Jess)
# ASSAY CONTEXT: NCI-H1048 cells, KAT2B, 24 h, Western Blot, vs DMSO; read-out: KAT2B NCI-H1048 DC50
# DC50 per entry

Request: Consider the molecule CN1C[C@H](Nc2cnn(C)c(=O)c2Br)C[C@H](c2ccc(CN3CCN(c4cccc([C@H]5CCC(=O)NC5=O)c4)CC3)cc2)C1 [Compound 84] and give its measured DC50.
Response: 1 to 30 nM

Request: Requested read-out: DC50. Entry: CN1C[C@H](Nc2cnn(C)c(=O)c2Br)C[C@H](c2ccc(CN3CCN(c4ccc5c(C6CCC(=O)NC6=O)cncc5c4)CC3)cc2)C1 (stereo partly drawn) [Compound 380]
Response: < 1 nM

Request: DC50 for Cc1cc(N2CCC3(CCN(C(=O)c4ccc([C@H]5C[C@@H](Nc6cnn(C)c(=O)c6Cl)CN(C)C5)cc4)CC3)CC2)cnc1C1CCC(=O)NC1=O (stereo partly drawn) [Compound 247] ?
Response: 1 to 30 nM

All values here come from patent US20260306640A1.
